assay: human hepatoma cell viability loss – ATP luminescence, cytotoxicity control for P. falciparum antimalarial project, primary screen (AID 2303); settings: HepG2 viability, 24-48 h, at 10 µM, active compounds read high;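 further: 0% = DMSO wells and 100% = digitonin-killed cells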
EXPERIMENTAL_ENDPOINT: inhibition (%)
Just the number please, in %, no unit attached.

Task item: Request the reported inhibition associated with O=C(Nc1cccc(CN2CCN(Cc3ccc(O)cc3)CC2)c1)c1cc2ccccc2s1
Reply: 15

Task item: Quick one: inhibition of Cc1ccc2[nH]c(C3CCCNC3)c(-c3ccncc3)c2c1 (stereo not drawn) ?
Reply: 10

Task item: Please give the measured inhibition for this molecule: COc1cccc2c(NN=Cc3ccccc3[N+](=O)[O-])ccnc12
Reply: 8

Task item: Need inhibition of Cc1cc(OCC2CCCO2)c2cc(NC(=O)C(=O)Nc3ccc4nc(C)cc(OCC5CCCO5)c4c3)ccc2n1 (stereo not drawn) , thanks.
Reply: 7

Task item: # input molecule: CCCCCCn1c(Sc2ccc(C#N)c([N+](=O)[O-])c2)nnc1-c1cc(OC)cc(OC)c1 ; wanted: its inhibition
Reply: 35

Task item: Which inhibition is listed for O=C(CCN1CCCCC1)Nc1ccc(Nc2nccc(NCC(O)c3ccccc3)n2)cc1 (stereo not drawn) ?
Reply: 18

Task item: Dear colleague, I am looking for the recorded inhibition of the following molecule: CN(C)CCNCc1ccc(-c2ccc3c(Nc4ccc(F)cc4Cl)ccnc3c2)o1
Reply: 31

Task item: Quick one: inhibition of CCc1c(CCNCCCCCCNC(C)Cc2ccc3c(c2CC)OCO3)ccc(OC)c1OC (stereo not drawn) ?
Reply: 100

Task item: For the molecule shown here, Cc1ccc(NC(=O)c2ccc(CN3CCCN(CCC(C)C)CC3)cc2)cc1F , give the reported inhibition.
Reply: 40

Task item: Fill blank: measured inhibition of the molecule Cc1ccc2[nH]cc(/C=C/C(=O)NC3CCC(CCN4CCc5ccc(C#N)cc5CC4)CC3)c2c1 (stereo not drawn) is ____.
Reply: 11

Task item: Dear colleague, I am looking for the recorded inhibition of the following molecule: OC(CNc1ccnc(Nc2cccc(CCN3CCOCC3)c2)n1)c1ccccc1 (stereo not drawn)
Reply: 34

Task item: Given O=C(Nc1ccccc1)OCCOc1ccc(CC2SC(=O)NC2=O)cc1 (stereo not drawn) , state its recorded inhibition.
Reply: 1

Task item: Look at this molecule and give its reported inhibition. Cc1ccc(NC(=O)NC2CCN(CCCCCNC(=O)[C@@H]3C[C@H]3c3ccc(Cl)c(Cl)c3)CC2)cc1
Reply: 35

Task item: Quick one: inhibition for CC(=O)C=C1CC(=O)N(C[C@@H](O)[C@H]2O[C@@H]3OC(C)(C)O[C@@H]3[C@H]2O)c2ccccc2N1 ?
Reply: -8

Task item: I would be grateful if you could share the reported inhibition for CCNc1cc(C(=O)N[C@@H](Cc2ccccc2)[C@H](O)CNC23CCC(CC2)C3)cc(N2CCCCS2(=O)=O)c1 .
Reply: 22

Task item: Requested read-out: inhibition. Entry: CN(C)C(CNc1ncnc2cc(Cl)ccc12)Cc1ccccc1 (stereo not drawn)
Reply: 13

Task item: Give its inhibition value. Item: Cc1nnsc1C(=O)Nc1cccc(-c2ccc(-c3nc4ccccc4[nH]3)s2)c1
Reply: 55

Task item: Report inhibition for COc1ccc2c(ccc3c2ncc2c(=O)n(-c4ccccc4)[nH]c23)c1 please.
Reply: -2
